# Tested on: ivy-leaved morning glory (Ipomoea hederacea)
# Assay Method Text: Test G Post-Emergence Protocol
# Assay type: in vivo
# Particulars: Ipomoea, post-emergence, 312 h, 250 g ai/ha, evaluated after 13 days, read-out: damage to plant, Morningglory, Ivy-leaved (100=total damage to plant; 0=no damage to plant)
Recorded Metric: pest or weed control at 250 g/ha (%)
Give bare numbers, in %.

So what does the record say about pest or weed control at 250 g/ha for Cc1ccc(NC(=O)[C@H]2C(=O)N(C)C[C@@H]2c2ccc(C(F)(F)F)cc2)c(C)c1C (racemic) [Compound 1448] ?
0

So what does the record say about pest or weed control at 250 g/ha for CSc1nccc(NC(=O)[C@@H]2C(=O)N(C)C[C@H]2c2ccc(C(F)(F)F)cc2)n1 (racemic) [Compound 1516] ?
0

So what does the record say about pest or weed control at 250 g/ha for CN1C[C@@H](c2ccc(C(F)(F)F)cc2)[C@H](C(=O)Nc2ncccn2)C1=O (racemic) [Compound 1564] ?
0

Hi there! I need pest or weed control at 250 g/ha for each item below, if you can.
1. Cc1cc(NC(=O)[C@@H]2C(=O)N(C)C[C@H]2c2ccc(C(F)(F)F)cc2)on1 (racemic) [Compound 1579]
2. COc1cccc(NC(=O)[C@H]2C(=O)N(C)C[C@@H]2c2ccc(C(F)(F)F)cc2)c1C (racemic) [Compound 1446]
3. Cc1ccc([C@@H]2CN(C)C(=O)[C@H]2C(=O)Nc2cccc(F)c2F)cc1Cl (racemic) [Compound 1475]
4. CN1C[C@@H](c2ccc(C(F)(F)F)cc2)[C@H](C(=O)Nc2cccc(F)c2C#N)C1=O (racemic) [Compound 1637]

[0, 0, 70, 30]
